system.tested: Sentrin-specific protease 8 (Homo sapiens) (UniProt Q96LD8)
Sequence (Q96LD8 whole entry, looked up): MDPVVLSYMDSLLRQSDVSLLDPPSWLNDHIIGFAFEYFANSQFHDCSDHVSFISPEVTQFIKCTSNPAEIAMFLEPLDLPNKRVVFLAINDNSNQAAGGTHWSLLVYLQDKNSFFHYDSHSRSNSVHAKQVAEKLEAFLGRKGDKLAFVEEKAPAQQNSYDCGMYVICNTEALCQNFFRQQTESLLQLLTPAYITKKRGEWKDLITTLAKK
measurement.description: blockers of human SENP8 peptidase activity – biochemical, luminescence, primary screen (AID 2540)
condition.info: purified SENP8, Z-RLRGG-aminoluciferin cleavage, at 10 µM
Out of some 330,000 compounds screened, about 4,100 (1.2%) were called active. No stated cut-off is given here; in the data, active means inhibition above about 50%; inactive means the rest. Only a selection was taken, and actives are over-represented in it overall.
Labels: yes = active, no = inactive

| compound | class.assignment |
| --- | --- |
| COc1ccc(/C=N/NC(=O)c2cc(-c3cccc(C)c3)nc3ccccc23)cc1O | no |
| COc1ccc(CNc2c(CO)cnc3c2cnn3C)cc1 | no |
| CC1=C2C(=O)OC(c3ccoc3)C2(C)CCC1 (stereo not given) | no |
| Cc1ccccc1N/N=C/c1ccc(N2CCOCC2)cc1 | no |
| Cc1[nH]n(-c2ccc([N+](=O)[O-])cc2)c(=O)c1C=NCCN1CCN(C(=O)c2ccccc2F)CC1 | yes |
| CN(CCO)c1ccc(/C=N/Nc2nncc3ccccc23)cc1 | yes |
| Cc1ccc(-n2ncc3c(Nc4cccc(C(=O)O)c4)ncnc32)cc1 | yes |
| CCOC(=O)C1=C(NC(=S)NC(=O)c2ccccc2)c2ccccc2CC1(C)C | no |
| CCCCNC(=O)c1ccccc1NC(=O)c1ccccc1N(C)S(C)(=O)=O | no |
| O=C(CNS(=O)(=O)c1ccc(Br)s1)NCc1ccc2c(c1)OCO2 | no |
| COc1ccc(C(=O)Nc2ccccc2C(=O)N2CCN(c3ccccc3)CC2)cc1 | no |
| CC1(C)C2CC=C(/C=N/NC(=O)c3ccc(Cl)cc3)C1C2 (stereo not given) | no |
| O=c1c2cc(-c3ccccc3)sc2nc2n1N=C(c1cccs1)CS2 | yes |
| CCNC(=S)N1CCN(CCN=CC2=C(O)CC(C)(C)CC2=O)CC1 | no |
| COc1ccc(C(=O)Nc2ccccc2C(=O)N/N=C/c2ccc(O)c(OC)c2)cc1 | yes |
| O=C(N/N=C/c1ccc(OC(=O)c2ccccc2Cl)cc1)c1ccc(O)cc1 | no |
| COc1ccccc1OC(C)C(=O)Nc1ccc(S(=O)(=O)Nc2nccs2)cc1 (stereo not given) | no |
| O=C(O)C(F)(F)C(NCc1ccccc1)c1ccccc1 (stereo not given) | no |
| O=C1c2ccccc2-c2ncnc3c(N4CCOCC4)cc(N4CCOCC4)c1c23 | no |
| O=C(NN=Cc1ccc(N2CCOCC2)cc1)c1cc2ccccc2cc1O | no |
| COc1cccc(C(=O)NC(=O)Nc2nc(C)cc(C(F)(F)F)n2)c1 | no |
| COc1ccc(/C=N/OCC(=O)N(Cc2ccccc2)c2ccccc2C(=O)O)cc1 | no |
| O=c1c(-c2ccccc2)cnc2n1CCS2 | no |
| Cc1nn(C)cc1N1C(=O)c2cccc3c(N)ccc(c23)C1=O | no |
| Cc1cc(C(F)(F)F)nn1CC(=O)N1CCCC1 | no |
| Cc1ccccc1NS(=O)(=O)CCCCC(Cl)(Cl)Cl | no |
| Cc1c(-c2ccccc2)n[nH]c1C(=O)N=Nc1c(O)[nH]c2ccccc12 | no |
| COc1cccc(/C=N\Nc2nncc(-c3ccccc3)n2)c1 | no |
| CC(=C/c1ccccc1)/C=N/NC(=O)c1cc(C)oc1C | yes |
| CN1C(C(=O)NCc2ccco2)CC2Cn3c(nc4ccccc43)C21 (stereo not given) | no |
| CC1(C)CCSC(/C=C/c2ccccc2)=N1 | no |
| CNS(=O)(=O)c1ccc(NC(=O)Nc2ccc3c(c2)OCO3)cc1 | no |
| Cc1ccc(-n2[nH]c(C)c(/C=N/NC(=O)c3cccc([N+](=O)[O-])c3)c2=O)cc1C | no |
| COc1ccc(CNC(=O)Cc2ccc(-c3ccccc3)cc2)cc1OC | no |
| COc1cccc(Nc2nc(N)c([N+](=O)[O-])c(NCc3ccco3)n2)c1 | no |
